Tested on: 621-102 (TSC2-deficient);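 note: immortalized renal angiomyolipoma cells stably carrying empty vector or TSC2, dosed in 384-well plates in DMEM, viability normalized to vehicle-treated wells within each plate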
Assay: relative viability vs DMSO; higher = less cytotoxic
Conditions: 0.1 µM; serum: 10% FBS; 72 h
Where a name gives a salt, the structure may show the parent alone.
test.readout: relative viability (%)
Write the number in % without appending the unit.

Using the record for C[C@]12CC[C@@H]3c4ccc(O)cc4C[C@@H](CCCCCCCCC[S+]([O-])CCCC(F)(F)C(F)(F)F)[C@H]3[C@@H]1CC[C@@H]2O (some centres not stated) [Fulvestrant] , state its measured relative viability.
115

Using the record for Cc1cc(Nc2nc(N[C@@H](C)c3ccc(F)cc3)c(C#N)cc2F)n[nH]1 [AZ 960] , state its measured relative viability.
104

Using the record for CN(c1ncccc1CNc1nc(Nc2ccc3c(c2)CC(=O)N3)ncc1C(F)(F)F)S(C)(=O)=O , state its measured relative viability.
101

Using the record for CN1CCCC(n2nc(Cc3ccc(Cl)cc3)c3ccccc3c2=O)CC1 (configuration not stated) [Azelastine HCl (Astelin)] , state its measured relative viability.
109

Using the record for Nc1[nH]cnc2ncnc1-2 [Adenine] , state its measured relative viability.
97.9

Using the record for CS(=O)(=O)N1CCN(Cc2cc3nc(-c4cccc5[nH]ncc45)nc(N4CCOCC4)c3s2)CC1 [GDC-0941] , state its measured relative viability.
111

Using the record for O=c1n(CCCN2CCN(c3cccc(Cl)c3)CC2)nc2ccccn12 [Trazodone HCl] , state its measured relative viability.
99.8
